# target-of-assay: bovine serum albumin (BSA) (bovine) (UniProt P02769)
# Sequence (P02769 25-607 limits assumed): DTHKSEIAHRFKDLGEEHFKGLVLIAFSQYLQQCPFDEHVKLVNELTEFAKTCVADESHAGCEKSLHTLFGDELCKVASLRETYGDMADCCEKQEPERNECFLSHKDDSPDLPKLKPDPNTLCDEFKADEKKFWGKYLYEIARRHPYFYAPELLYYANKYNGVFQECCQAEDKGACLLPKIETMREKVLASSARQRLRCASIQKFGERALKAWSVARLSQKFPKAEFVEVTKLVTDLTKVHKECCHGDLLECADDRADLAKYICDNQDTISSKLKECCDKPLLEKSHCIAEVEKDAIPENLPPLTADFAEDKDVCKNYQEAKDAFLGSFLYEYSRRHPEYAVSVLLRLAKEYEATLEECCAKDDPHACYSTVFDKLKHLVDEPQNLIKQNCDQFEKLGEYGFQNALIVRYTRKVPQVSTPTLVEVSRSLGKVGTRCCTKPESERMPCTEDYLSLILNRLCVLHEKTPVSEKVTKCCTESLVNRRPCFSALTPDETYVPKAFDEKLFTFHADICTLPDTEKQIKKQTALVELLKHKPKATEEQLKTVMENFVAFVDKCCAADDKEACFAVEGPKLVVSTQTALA
# procedure-summary: EIA, BSA background
Attribute: OD (A492)
State the answer as a number, implicitly in OD.

HCV 208A-442 (antibody, V domains shown) VH: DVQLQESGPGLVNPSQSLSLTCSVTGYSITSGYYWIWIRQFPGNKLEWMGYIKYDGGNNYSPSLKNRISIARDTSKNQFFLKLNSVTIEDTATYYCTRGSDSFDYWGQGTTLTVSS VL: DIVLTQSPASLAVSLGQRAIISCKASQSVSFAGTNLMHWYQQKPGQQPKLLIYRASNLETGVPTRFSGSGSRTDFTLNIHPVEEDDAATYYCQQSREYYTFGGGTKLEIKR: 0.06
HCV 208A-967 (antibody, V domains shown) VH: QVQLEESGPGLVAPSQSLSITCTVSGFSLTSYGVHWVRQPPGKGLEWLGVIWAVGSINYNSALMSRLSISKDNSKSQVFLKMNSLRTDDTAMYYCARDRTTATPFFDYWGQGTTLTVSS VL: DIVLTQSPASLAGSLGKRAPISCKASESVNFFGTNLIHWYQQKPGQPPKLLIYHASNLKTGVPARFRGRGSKTNFPLPIDPVEENDVAIYYCLQNRKIPLTFGVGTKLELKR: 1.3
HCV 208B-327 (antibody, V domains shown) VH: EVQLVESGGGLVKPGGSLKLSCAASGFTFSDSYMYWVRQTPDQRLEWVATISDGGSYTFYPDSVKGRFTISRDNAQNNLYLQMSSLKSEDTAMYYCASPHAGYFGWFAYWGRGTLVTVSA VL: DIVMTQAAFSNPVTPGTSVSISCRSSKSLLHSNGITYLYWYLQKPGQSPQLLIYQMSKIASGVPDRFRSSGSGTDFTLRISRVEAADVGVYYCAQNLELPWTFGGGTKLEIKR: 0.08

Complete the entry with OD (A492) for HCV 208B-822 (antibody, V domains shown) VH: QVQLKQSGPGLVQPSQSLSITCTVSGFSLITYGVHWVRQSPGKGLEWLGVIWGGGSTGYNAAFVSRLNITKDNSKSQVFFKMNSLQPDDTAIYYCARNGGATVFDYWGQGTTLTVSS VL: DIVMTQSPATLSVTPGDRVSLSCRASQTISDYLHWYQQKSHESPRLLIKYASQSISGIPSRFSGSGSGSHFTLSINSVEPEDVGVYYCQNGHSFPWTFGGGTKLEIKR 0.06

Return OD (A492) (reported value) for this binder: HCV 208B-826 (antibody, V domains shown) VH: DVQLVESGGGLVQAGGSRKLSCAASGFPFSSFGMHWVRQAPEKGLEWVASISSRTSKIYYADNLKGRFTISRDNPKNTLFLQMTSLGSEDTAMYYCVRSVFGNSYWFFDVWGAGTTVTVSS VL: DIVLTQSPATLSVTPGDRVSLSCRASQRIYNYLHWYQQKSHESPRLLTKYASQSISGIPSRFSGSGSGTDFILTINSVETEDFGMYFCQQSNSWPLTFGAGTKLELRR 0.08
